target: Alpha-2A adrenergic receptor (Homo sapiens) (UniProt P08913); details: Compound concentration 10 µM; call rule not given here
Sequence (P08913 whole entry): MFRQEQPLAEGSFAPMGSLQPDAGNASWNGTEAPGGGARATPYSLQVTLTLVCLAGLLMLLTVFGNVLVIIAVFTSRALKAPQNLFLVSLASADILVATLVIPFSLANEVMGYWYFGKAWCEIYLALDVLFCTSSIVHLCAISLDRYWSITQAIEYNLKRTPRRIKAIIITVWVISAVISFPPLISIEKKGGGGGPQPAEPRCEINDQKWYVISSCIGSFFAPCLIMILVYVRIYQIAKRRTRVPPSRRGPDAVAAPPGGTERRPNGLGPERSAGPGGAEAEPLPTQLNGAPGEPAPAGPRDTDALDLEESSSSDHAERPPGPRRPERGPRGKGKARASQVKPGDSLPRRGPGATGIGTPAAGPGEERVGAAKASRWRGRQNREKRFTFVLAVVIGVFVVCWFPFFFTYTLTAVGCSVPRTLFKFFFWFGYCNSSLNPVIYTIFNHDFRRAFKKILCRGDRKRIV
In this exercise, the only acceptable responses are label 1 (active), label 0 (inactive)

Query :: Recorded call for `Cc1nc(-c2ccc(-c3ccc(C(=O)N4CCc5cc6c(cc54)C4(CCN(C)CC4)CO6)cc3)c(C)c2)no1` ?
Result :: label 1

Query :: # iterate: CC(C)NCC(O)COc1cccc2[nH]ccc12 (centres undefined)
Result :: label 0

Query :: # iterate: `CN1CCC(C(=O)c2cccc(NC(=O)c3c(F)cc(F)cc3F)n2)CC1`
Result :: label 0

Query :: # iterate: `COc1ccc(S(=O)(=O)c2cc(OC)ccc2S(=O)(=O)c2ccc([C@H](C)NS(C)(=O)=O)cc2)cc1`
Result :: label 0

Query :: # iterate: `COC(=O)C1=C(C)NC(C)=C(C(=O)OCCCN2CCC(c3ccccc3)(c3ccccc3)CC2)[C@H]1c1cccc([N+](=O)[O-])c1`
Result :: label 1

Query :: # iterate: `CCc1cc2c(cc1CC)CC(NC[C@H](O)c1ccc(O)c3[nH]c(=O)ccc13)C2`
Result :: label 0

Query :: # iterate: `Cc1c(P(=S)(c2ccccc2)c2ccccc2)n2ccccc2[n+]1C/C=C/c1ccccc1`
Result :: label 1

Query :: # iterate: `Cc1cc(NC(=O)NCCN2CCC(O)(Cc3ccccc3)CC2)c2ccccc2n1`
Result :: label 1

Query :: # iterate: Cc1ccccc1C(=O)Nc1ccc(C(=O)N2CCCC(O)c3cc(Cl)ccc32)c(C)c1 (centres undefined)
Result :: label 0

Query :: # iterate: `CCCn1c(=O)c2nc(C34CC5CC(CC3C5)C4)[nH]c2n(CCC)c1=O`
Result :: label 0

Query :: # iterate: `O=C(O)C1CN(Cc2ccc(OCc3ccc(Cl)c(Cl)c3)cc2)C1`
Result :: label 0

Query :: # iterate: `CCCCN(CC)c1nc(C)nc2c1c(C)cn2-c1c(C)cc(C)cc1C`
Result :: label 0

Query :: # iterate: `CN1C(=O)[C@@H](NC(=O)c2cc3ccccc3[nH]2)N=C(c2ccccc2)c2ccccc21`
Result :: label 0

Query :: # iterate: `C[C@@H](NCCCc1cccc(C(F)(F)F)c1)c1cccc2ccccc12`
Result :: label 0

====

target: D(1A) dopamine receptor (Homo sapiens) (UniProt P21728); conditions: Compound concentration 10 µM; call rule not given here
Sequence (P21728 whole entry): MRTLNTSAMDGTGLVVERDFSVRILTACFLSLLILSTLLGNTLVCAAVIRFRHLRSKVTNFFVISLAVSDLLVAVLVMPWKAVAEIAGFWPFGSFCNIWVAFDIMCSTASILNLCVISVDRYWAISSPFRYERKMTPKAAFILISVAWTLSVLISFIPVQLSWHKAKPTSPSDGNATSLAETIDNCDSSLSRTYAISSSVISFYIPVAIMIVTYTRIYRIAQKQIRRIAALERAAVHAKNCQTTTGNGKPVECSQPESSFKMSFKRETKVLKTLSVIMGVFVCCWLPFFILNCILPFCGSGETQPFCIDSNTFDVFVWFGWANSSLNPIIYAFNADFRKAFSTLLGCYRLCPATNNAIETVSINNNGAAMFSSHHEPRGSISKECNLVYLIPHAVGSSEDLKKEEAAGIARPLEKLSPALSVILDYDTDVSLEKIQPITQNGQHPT
In this exercise, the only acceptable responses are 1 (yes) for active, 0 (no) for inactive

Query :: Recorded call for `OC1(c2ccc(Cl)cc2)CCN(Cc2c[nH]c3ccccc23)CC1` ?
Result :: 1 (yes)

Query :: # iterate: `C[C@H](Cc1cc2c(c(C(N)=O)c1)N(CCCO)CC2)NCCOc1ccccc1OCC(F)(F)F`
Result :: 0 (no)

Query :: # iterate: `C[C@H](CO)Nc1nc(SCc2cccc(Cl)c2F)nc2[nH]c(=O)sc12`
Result :: 0 (no)

Query :: # iterate: `COc1cccc(-c2c(C)n(Cc3c(F)cccc3C(F)(F)F)c(=O)n(C[C@H](NCCCC(=O)O)c3ccccc3)c2=O)c1F`
Result :: 0 (no)

Query :: # iterate: `CN1CCC(C(=O)c2cccc(NC(=O)c3c(F)cc(F)cc3F)n2)CC1`
Result :: 0 (no)

Query :: # iterate: `CCCCN(CCCC)C(=O)CN1C[C@@H](c2ccc3c(c2)OCO3)[C@H](C(=O)O)[C@H]1c1ccc(OC)cc1`
Result :: 0 (no)

Query :: # iterate: `Cc1cc(NC(=O)Nc2ccc(N(C)C)cc2)c2cc(F)cc(F)c2n1`
Result :: 0 (no)

Query :: # iterate: `COc1ccccc1N1CCN(CCCCNC(=O)c2ccc3ccccc3c2)CC1`
Result :: 1 (yes)

Query :: # iterate: `CCC(=O)NCC[C@@H]1CCc2ccc3c(c21)CCO3`
Result :: 0 (no)

Query :: # iterate: `Clc1cccc(COc2cncc(N3CCNCC3)n2)c1`
Result :: 0 (no)

Query :: # iterate: `COc1ccc(NC(=O)c2ccc(-c3ccc(-c4noc(C)n4)cc3C)cc2)cc1OCCN(C)C`
Result :: 0 (no)

Query :: # iterate: `Cc1nc2sccn2c(=O)c1CCN1CCC(=C(c2ccc(F)cc2)c2ccc(F)cc2)CC1`
Result :: 1 (yes)

Query :: # iterate: CC(C)NCC(O)COc1ccc(CCOCC2CC2)cc1 (stereo not drawn)
Result :: 0 (no)

Query :: # iterate: `COC1CCN(c2cccc(-c3cc(NC(C)=O)nc(-n4nc(C)cc4C)n3)n2)CC1`
Result :: 0 (no)

Query :: # iterate: C[C@@H](NCCc1ccc(O)cc1)[C@@H](O)c1ccc(O)cc1 (relative stereo)
Result :: 0 (no)

Query :: # iterate: `CC(C)[C@H](CO)Nc1nc(Nc2cccc(Cl)c2)c2ncn(C(C)C)c2n1`
Result :: 0 (no)

Query :: # iterate: `COc1cccc([C@H](O)C2CCN(CCc3ccc(F)cc3)CC2)c1OC`
Result :: 1 (yes)

Query :: # iterate: `CCCCN(CC)c1nc(C)nc2c1c(C)cn2-c1c(C)cc(C)cc1C`
Result :: 0 (no)

Query :: # iterate: `CC1=C2C[C@H]3[C@@H](CC=C4C[C@@H](O)CC[C@@]43C)[C@@H]2CC[C@]12O[C@@H]1C[C@H](C)CN[C@H]1[C@H]2C`
Result :: 0 (no)

Query :: # iterate: `Cc1cc(C)c(N)c(C#Cc2cccc(F)c2)n1`
Result :: 0 (no)

Query :: # iterate: `c1nc(CC2CCNCC2)c[nH]1`
Result :: 0 (no)

Query :: # iterate: `NC[C@H](O)c1ccc(O)c(O)c1`
Result :: 0 (no)

Query :: # iterate: `CC1CCN(CC[C@H]2CCCN2S(=O)(=O)c2cccc(O)c2)CC1`
Result :: 0 (no)

Query :: # iterate: `Nc1nc(NCCc2ccc(O)cc2)nc2nc(-c3ccco3)nn12`
Result :: 0 (no)

Query :: # iterate: `Cc1csc2c(N[C@@H](C)CN3CCN(S(=O)(=O)c4ccc(Cl)c(Cl)c4)CC3)ncnc12`
Result :: 0 (no)

Query :: # iterate: `Cc1cc([C@@H](C)Nc2cccc(-c3cc(C)c(C(=O)N[C@@H](C)C(=O)O)c(C)c3)c2)ccc1Cl`
Result :: 0 (no)

Query :: # iterate: `CSc1ccc(C(=O)N[C@@H]2CCCC[C@@H]2NC(=O)CNC(=O)c2cc(C(F)(F)F)ccc2NC(=O)NC(C)C)cc1`
Result :: 0 (no)

Query :: # iterate: `COc1ccc2cc(S(=O)(=O)N[C@H](CC(=O)N[C@H](Cc3ccc(CN4[C@H](C)CCC[C@@H]4C)cc3)C(=O)N(C)C(C)C)c3ccc4c(c3)OCO4)ccc2c1`
Result :: 0 (no)

Sourced from ChEMBL document CHEMBL5442219
